The values you see were collected from patent US20210393713A1.

# measurement_target: AAV-PHP.B capsid (AAV9 variant with the […] insert)
# experimental_details: SPR
test_readout: Kd (nM)
All answers are understood in nM, so give the number only.

Inquiry: Fill in the blank: the reported Kd of LY6A as used in SPR (immobilized on the sensor chip, or monomeric in solution) (receptor) LECYQCYGVPFETSCPSITCPYPDGVCVTQEAAVIVDSQTRKVKNNLCLPICPPNIESMEILGTKVNVKTSCCQEDLCNVAVPNG is ____.
Reply text: 0.119
